src = paper PMC8151276

system: ADRA1B (Homo sapiens, UniProt P35368)
Construct: purchased Promega (in-house HiBiT-GPCR construct library, NanoBRET)
Sequence (P35368 1-520): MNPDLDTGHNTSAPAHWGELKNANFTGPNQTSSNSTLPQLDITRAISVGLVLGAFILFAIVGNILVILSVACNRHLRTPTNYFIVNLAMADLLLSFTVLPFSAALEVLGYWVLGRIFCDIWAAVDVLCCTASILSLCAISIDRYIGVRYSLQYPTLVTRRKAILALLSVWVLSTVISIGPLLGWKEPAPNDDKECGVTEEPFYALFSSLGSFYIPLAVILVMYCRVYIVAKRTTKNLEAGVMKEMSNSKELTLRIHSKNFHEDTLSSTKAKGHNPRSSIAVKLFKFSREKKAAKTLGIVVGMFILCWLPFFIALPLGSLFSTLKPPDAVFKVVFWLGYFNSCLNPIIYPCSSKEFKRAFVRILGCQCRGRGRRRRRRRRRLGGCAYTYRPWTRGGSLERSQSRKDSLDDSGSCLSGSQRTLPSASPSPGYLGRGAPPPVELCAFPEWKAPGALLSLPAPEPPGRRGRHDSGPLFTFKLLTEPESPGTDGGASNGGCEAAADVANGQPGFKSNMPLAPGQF
measurement.description: NanoBRET screen HiBiT-ADRA1B in HEK293
Assay type: binding
measurement.context: ADRA1B; tracer 1μM
Description: Each tracer candidate was screened across the entire library of HiBiT-GPCR constructs using NanoBRET as the detection modality. As depicted in Figure 4A, the specificity of interactions was evaluated through decrease in BRET due to competitive displacement of a bound tracer by excess parental compound. Each tracer was analyzed for binding to each HiBiT-GPCR fusion in the absence and in the presence of competing parental compound. […]
observed.property: NanoBRET Fold Response
Give the figure by itself; no unit, no explanation.

Observe how each entry below is paired with its result.
O=C(CCc1ccc2n1[B-](F)(F)[N+]1=C(c3ccc[nH]3)C=CC1=C2)NCCOCCOCCNC(=O)OCCOCCN1CCN(C2=Nc3ccccc3Sc3ccccc32)CC1 [Quetiapine-a-2-NB590]    1.59
COc1ccccc1N1CCN(CCCCN2C(=O)c3ccc(CNC(=O)CCOCCNC(=O)c4ccc(CNC(=O)CCc5ccc6n5[B-](F)(F)[N+]5=C(c7ccc[nH]7)C=CC5=C6)cc4)cc3C2=O)CC1 [NAN-190-3-NB590]    1.72

So what does the record say about NanoBRET Fold Response for CC(C)N(CC[C@H](c1ccccc1)c1cc(CCNC(=O)CCOCCOCCOCCOCCNC(=O)CCc2ccc3n2[B-](F)(F)[N+]2=C(c4ccc[nH]4)C=CC2=C3)ccc1O)C(C)C [Tolterodine-2-NB590] ?
1.06

So what does the record say about NanoBRET Fold Response for O=C(CCOCCOCCOCCOCCNC(=O)CCc1ccc2n1[B-](F)(F)[N+]1=C(c3ccc[nH]3)C=CC1=C2)NCCCN1CCN(C2=Nc3ccccc3Oc3ccc(Cl)cc32)CC1 [Loxapine-a-2-NB590] ?
1.54

So what does the record say about NanoBRET Fold Response for N#CN=C(NCCCOc1cccc(CN2CCCCC2)c1)NCCNC(=O)CCOCCOCCOCCOCCNC(=O)CCc1ccc2n1[B-](F)(F)[N+]1=C(c3ccc[nH]3)C=CC1=C2 [Aminopotentidine-2-NB590] ?
1.01

So what does the record say about NanoBRET Fold Response for COc1ccccc1N1CCN(CCCCN2C(=O)c3ccc(CNC(=O)CCOCCOCCOCCOCCNC(=O)CCc4ccc5n4[B-](F)(F)[N+]4=C(c6ccc[nH]6)C=CC4=C5)cc3C2=O)CC1 [NAN-190-2-NB590] ?
1.59

So what does the record say about NanoBRET Fold Response for CC(C)N(CC[C@H](c1ccccc1)c1cc(CCNC(=O)c2ccc(CNC(=O)CCc3ccc4n3[B-](F)(F)[N+]3=C(c5ccc[nH]5)C=CC3=C4)cc2)ccc1O)C(C)C [Tolterodine-BZ-NB590] ?
1.05
